experiment.description: Ratio of catalytic constant to that of Michaelis-Menten constant for LTA4 hydrolase-catalyzed hydrolysis was determined
endpoint: log10 of k cat/Km (log10 of the value in M⁻¹ s⁻¹)
Heads up, the numbers here are log10 of k cat/Km in M⁻¹ s⁻¹ units.

molecule | measurement
NCCCC[C@@H](N)C(=O)Nc1ccc([N+](=O)[O-])cc1 | 2.54
O=C(Nc1ccc([N+](=O)[O-])cc1)[C@@H]1CCCN1 | 3.18
CC(C)CC(N)C(=O)Nc1ccc([N+](=O)[O-])cc1 (single isomer, unassigned) | 2.70
C[C@@H](N)C(=O)Nc1ccc([N+](=O)[O-])cc1 | 3.08

Query block: For `CCCCC/C=C\C\C=C/C=C/C=C/[C@@H]1O[C@H]1CCCC(=O)O` , what is its reported log10 of k cat/Km?
Result block: 4.95

Query block: Follow-up item: `NC(N)=NCCC[C@@H](N)C(=O)Nc1ccc([N+](=O)[O-])cc1`
Result block: 2.88

---

tgt: Leukotriene A-4 hydrolase (Homo sapiens, UniProt P09960)
Sequence (P09960 whole entry): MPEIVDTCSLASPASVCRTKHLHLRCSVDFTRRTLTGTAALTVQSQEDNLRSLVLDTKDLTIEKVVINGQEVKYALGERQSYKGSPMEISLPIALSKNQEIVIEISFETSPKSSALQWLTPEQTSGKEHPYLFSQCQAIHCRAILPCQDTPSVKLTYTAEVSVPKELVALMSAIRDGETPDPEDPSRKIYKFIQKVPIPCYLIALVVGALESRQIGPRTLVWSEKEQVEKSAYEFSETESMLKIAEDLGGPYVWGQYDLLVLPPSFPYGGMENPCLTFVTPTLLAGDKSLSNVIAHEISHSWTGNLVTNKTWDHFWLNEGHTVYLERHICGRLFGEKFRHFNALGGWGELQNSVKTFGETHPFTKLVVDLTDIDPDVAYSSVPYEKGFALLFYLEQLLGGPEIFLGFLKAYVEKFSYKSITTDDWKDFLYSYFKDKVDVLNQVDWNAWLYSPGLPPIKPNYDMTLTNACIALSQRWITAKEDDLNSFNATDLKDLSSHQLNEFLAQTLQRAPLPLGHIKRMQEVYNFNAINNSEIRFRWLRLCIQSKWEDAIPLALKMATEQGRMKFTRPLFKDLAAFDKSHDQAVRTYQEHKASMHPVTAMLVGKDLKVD
experiment.description: Inhibitory activity against Leukotriene A4 hydrolase from human leukocytes
pIC50: −log10 of the molar value.
A collection of molecules and their measured pIC50

molecule | pIC50
N[C@@H](Cc1ccccc1)[C@H](O)C(=O)NCCC(=O)O | ~4.10
CCOC(=O)CC(F)(F)C(=O)/C=C/c1ccccc1 | < 2.30

Query block: For COC(=O)C(S)[C@H](N)Cc1ccccc1 (some centres undefined) , what is its reported pIC50?
Result block: < 3.60

Query block: Follow-up item: `N[C@H](Cc1ccccc1)[C@H](O)C(=O)NCCC(=O)O`
Result block: ~4.00

Query block: Follow-up item: `COC(=O)[C@H](O)[C@@H](N)Cc1ccccc1`
Result block: < 3.30

Query block: Follow-up item: `N[C@@H](Cc1ccccc1)[C@H](O)C(=O)O`
Result block: < 3.00

Query block: Follow-up item: `C[C@H](CS)C(=O)N1CCC[C@H]1C(=O)O`
Result block: 7.15

Query block: Follow-up item: NC(Cc1ccccc1)P(=O)(O)NCC(=O)O (centres undefined)
Result block: ~3.70

Query block: Follow-up item: COC(=O)C(S)[C@@H](N)Cc1ccccc1 (some centres undefined)
Result block: ~3.60
